GI50 for assorted compounds
# Tested on: NCI-H460
# Test name: NCI SRB growth inhibition (single dose 10 µM / five-dose)
# Assay type: cell-based, human
# Measurement setup: Homo sapiens; NCI-H460, Non-small cell lung cancer; five-dose
# Protocol: Screening of cytotoxic activity against a panel of sixty human tumor cell lines The selected compounds by NCI were evaluated for their anticancer activity in a two- stage process. […] Using the seven absorbance measurements [time zero, (Tz), control growth, (C), and test growth in the presence of drug at the five concentration levels (Ti)], the percentage growth is calculated at each of the drug concentrations levels. […] Three dose response parameters are calculated for each experimental agent. […]
Use µM as the unit, but write only the number.

Chemical structure | GI50 [µM]
COc1cccc(C=NNC(=O)c2ccc3[nH]c(-c4ccc(Cl)cc4)nc3c2)c1 | 3.34

stdin: Look up GI50 for this compound: `COc1cccc(C=NNC(=O)c2ccc3[nH]c(-c4ccc(Cl)cc4)nc3c2)c1O`
stdout: 1.35

stdin: Look up GI50 for this compound: `COc1cccc(C=NNC(=O)c2ccc3[nH]c(-c4ccccc4)nc3c2)c1O`
stdout: 2.63

stdin: Look up GI50 for this compound: `COc1ccc(-c2nc3cc(C(=O)NN=Cc4cccc(OC)c4)ccc3[nH]2)cc1`
stdout: 1.85

stdin: Look up GI50 for this compound: `COc1ccc(-c2nc3cc(C(=O)NN=Cc4cccc(OC)c4O)ccc3[nH]2)cc1`
stdout: 3.27

stdin: Look up GI50 for this compound: `O=C(NN=Cc1ccccc1O)c1ccc2[nH]c(-c3ccc(Cl)cc3)nc2c1`
stdout: 0.25

stdin: Look up GI50 for this compound: `COc1ccc(-c2nc3cc(C(=O)NN=Cc4ccccc4O)ccc3[nH]2)cc1`
stdout: 1.87

stdin: Look up GI50 for this compound: `COc1cc(C=NNC(=O)c2ccc3[nH]c(-c4ccc(Cl)cc4)nc3c2)cc(OC)c1OC`
stdout: 3.19

Taken from paper PMC10893631.
